Catalogue of IC50 values
target: Gamma-secretase; test: Inhibition of human gamma secretase in HEK293 cells by reporter gene assay; format: cell-based

[
  {
    "COMPOUND": "CC(C(N)=O)C(=O)NC1C(=O)N(C)c2ccccc2-c2ccccc21 (stereo not drawn)",
    "IC50": "> 25 µM"
  },
  {
    "COMPOUND": "CC(C(=O)NC1C(=O)N(C)c2ccccc2-c2ccccc21)C(=O)NC(C)(C)c1ccccc1 (stereo not drawn)",
    "IC50": "> 20 µM"
  },
  {
    "COMPOUND": "CC(C(=O)NC(CO)c1ccccc1)C(=O)NC1C(=O)N(C)c2ccccc2-c2ccccc21 (stereo not drawn)",
    "IC50": "> 25 µM"
  }
]

Values were extracted from ChEMBL document CHEMBL1137506.
